Cited source: ChEMBL document CHEMBL1136166

tested on: Ferriprotoporphyrin IX; assay: In vitro inhibitory concentration against ferriprotoporphyrin in biomineralisation assay (FBIT); assay type: functional, Plasmodium falciparum
READOUT: IC50 (µM)
Provide only the numeric value, understood in µM.

Qu. Consider the compound COc1cc(CC2(O)c3ccccc3C3=NCCN32)cc(OC)c1OC (centres undefined) and give its measured IC50.
Ans. 1740

====

test system: Ferriprotoporphyrin IX; assay: In vitro inhibitory concentration against ferriprotoporphyrin in biomineralisation assay (FBIT); assay type: functional, Plasmodium falciparum
The entries below come with measured IC50 values attached.
# output: bare number, implied unit µM

Reference set (2 entries):
CCN(CC)CCCC(C)Nc1ccnc2cc(Cl)ccc12 (stereo not drawn); 28
COc1ccc(Cc2nnc(O)c3ccccc23)cc1; 5750

Turning now to a further record.
Qu. Any idea what IC50 was measured for "C=C[C@H]1CN2CC[C@H]1C[C@H]2[C@H](O)c1ccnc2ccc(OC)cc12" ?
Ans. 250
